Tested on: SK-MEL-5
Test: NCI tumour cell line growth inhibition, 48 h
Activity calls are given as the source filed them. Rule as the data show it: active = GI50 up to about 1.1 µM and inactive = higher.
Hi! Could you answer with just one of these? label 1 (active), label 0 (inactive)

{"columns": ["compound", "category-label"],
 "data": [
  ["CC1(C)CC(=O)c2c(nc(SSc3nc4c(c(-c5ccccc5)c3C#N)C(=O)CC(C)(C)C4)c(C#N)c2-c2ccccc2)C1", "label 0"],
  ["CCOC(=O)c1ccc(/N=C2\\S/C(=C\\C(=S)Nc3ccccc3)N(c3ccccc3)\\C2=N/c2ccc(C(=O)OCC)cc2)cc1", "label 0"],
  ["CC(C)(C)c1ccc(C(O)(c2ccc(C(C)(C)C)cc2)c2ccc(C(C)(C)C)cc2)cc1", "label 0"],
  ["c1cc2[se][se]c3c4cccc5[se][se]c(c(c1)c23)c54", "label 0"],
  ["Cn1c2c(c3ccccc31)CC(=S)N1CCCC(CC2O)C1 (configuration not stated)", "label 0"],
  ["COc1cc2c(c(OC)c1OC)-c1cccc(=O)cc1C(NC(C)=O)CC2 (configuration not stated)", "label 1"],
  ["Cc1ccc(NC(=O)S(N)(c2ccc(C)cc2)[N+](=O)[O-])cc1 (configuration not stated)", "label 0"],
  ["C=CCCCN(C(=O)c1ccccc1)c1ccc(C(=O)OC)o1", "label 0"]
]}

Query: Record lookup: outcome of this test for O=C(Cc1ccccc1)N/N=C/c1ccccc1O ?
Reply: label 0

Query: Same lookup for Cc1nc2nc3c(ncn3COCCO)c(O)n2c1C(c1ccccc1)(c1ccccc1)c1ccccc1 , please.
Reply: label 0

Query: Please give the result for C=C1CCC2C(C)(CO)C(O)CCC2(C)C1C/C=C1\C(=O)OCC1O (configuration not stated) too.
Reply: label 0

Query: Follow-up entry: Cc1ccc2nc3c(C)cc(=O)cc-3sc2c1
Reply: label 0

Query: Query COc1cccc(/C=C/c2ccnc3ccccc23)c1OC next
Reply: label 0

Query: Another compound to look at: COc1c(O)cc2c(c1O)C(=O)C(Cc1ccc(O)cc1)CO2 (configuration not stated)
Reply: label 0

Query: Would you mind doing NC(CCCCN/C=C1/N=C(c2ccccc2)OC1=O)C(=O)O (configuration not stated) as well?
Reply: label 0

Query: Also Cc1cccc2c(NCCN(C)C)c3cccc(C(=O)NCCN(C)C)c3nc12 , if possible.
Reply: label 1

Query: # repeat for O=C(O)C(=Cc1ccc(-c2ccccc2)cc1)C(=O)O
Reply: label 0

Query: Try the compound COC(=O)C1Cc2c(OC)ccc(OC)c2CC(C(=O)OC)C1=O (configuration not stated)
Reply: label 0

Query: Item: COc1cc(CNc2ccc(C)cc2)cc(OC)c1OC
Reply: label 1

Query: Again, but for CSC1C(=O)Nc2ccc3ccccc3c21 (configuration not stated)
Reply: label 0

Query: Field entry: O=C(O)C1CCC(=O)N1C(=O)COc1cc(Cl)c(Cl)cc1Cl (configuration not stated)
Reply: label 0

Query: Try this compound too: CN1CCN(CN2C(=O)C3C4C=CC(C3C2=O)C2C(=O)N(CN3CCN(C)CC3)C(=O)C42)CC1 (configuration not stated)
Reply: label 0

----------
Test system: NCI/ADR-RES
Test: NCI tumour cell line growth inhibition, 48 h
Active and inactive are the calls of the source. Cut-off read from the data, not from the text of the source: active = GI50 up to about 1.1 µM and inactive = higher.
Respond only with the outcome that fits, drawn from active, inactive

Some solved entries appear below for comparison.
{"columns": ["compound", "tested-target", "category-label"],
 "data": [
  ["CC1CN=C(Nc2ccc(S(N)(=O)=O)cc2)S1 (stereo not drawn)", "NCI/ADR-RES", "inactive"],
  ["CC1(C)[N+]([O-])=[N+]([O-])C1(Br)c1ccccc1 (stereo not drawn)", "NCI/ADR-RES", "inactive"],
  ["NCc1ccc(O)c(O)c1", "NCI/ADR-RES", "inactive"],
  ["Cc1cc(NS(=O)(=O)c2ccc(/N=N/c3c(O)c(C(=O)O)cc4ccccc34)cc2)nc(C)n1", "NCI/ADR-RES", "inactive"],
  ["CNC/C(Cl)=N/S(=O)(=O)c1ccc(C)cc1", "NCI/ADR-RES", "inactive"]
]}

Query: Hey, what did the test say about O=c1[nH]/c(=C/c2ccc(OCc3ccccc3)cn2)c(=O)[nH]/c1=C/c1ccc(F)cc1 ?
Reply: active

Query: Subsequent entry: O=C1Nc2ccccc2/C1=N/Nc1ccc([N+](=O)[O-])cc1[N+](=O)[O-]
Reply: inactive

Query: What do you have for COc1ccc(C)cc1Nc1nnc(-c2ccc(N)cc2)s1 ?
Reply: inactive

Query: Similarly, O=c1n(CCCN2CCOCC2)nc2n1-c1ccc3ccccc3c1SC2 ?
Reply: inactive

Query: // same read-out, input: CC(=O)c1sc2c(c1OC(=O)c1ccco1)c(=O)n(-c1ccccc1)c(=S)n2-c1ccccc1
Reply: inactive

Source: ChEMBL document CHEMBL1201862
